# assay-text: AUClast in ICR mouse brain at 20 mg/kg, ip after 24 hrs by LC-MS/MS analysis
# Type: ADME, organism-based
# Set-up: time 24 hrs, dose 20 mg/kg, route ip
quantity-name: AUC(0-t) at 24 h (ng·h/mL)
// note: answer is a bare numeric in ng·h/mL

Input line: Reported AUC(0-t) at 24 h for CC(=O)Nc1ncc(CN2CCN(CC(=O)Nc3ccc(Cl)cc3)CC2C)s1 (stereo unspecified) : what is it?
Output line: 590

###

# assay-text: Cmax in ICR mouse plasma at 20 mg/kg, ip after 24 hrs by LC-MS/MS analysis
# Format: ADME, organism-based
# Design: dose 20 mg/kg, time 24 hrs, route ip
quantity-name: Cmax

Input line: Reported Cmax for CC(=O)Nc1ncc(CN2CCN(CC(=O)Nc3ccc(Cl)cc3)CC2C)s1 (stereo unspecified) : what is it?
Output line: 3200 ng/mL

###

# assay-text: AUCinfinity in ICR mouse plasma at 20 mg/kg, ip after 24 hrs by LC-MS/MS analysis
# Assay type: ADME, organism-based
# Parameters: time 24 hrs, dose 20 mg/kg, route ip
quantity-name: AUC(0-inf) (ng·h/mL)
// note: answer is a bare numeric in ng·h/mL

Input line: Reported AUC(0-inf) for CC(=O)Nc1ncc(CN2CCN(CC(=O)Nc3ccc(Cl)cc3)CC2C)s1 (stereo unspecified) : what is it?
Output line: 5210
